System: NCI-H2405
MEASUREMENT_NOTES: relative viability (nuclei count vs DMSO), 5 days (fraction); higher = more cells survive
RUN_CONDITIONS: first compound 0.6325 µM
Response field label takes T when relative viability is strictly below 0.7 and F in all other cases.

I wonder whether Cc1csc(=NC2CCCCC2)n1/N=C/c1ccc(O)c(O)c1O [MIM1] + CC(C)C[C@H](NC(=O)[C@H](Cc1ccccc1)NC(=O)c1cnccn1)B(O)O [Bortezomib] (partner 0.002 µM) has relative viability below 0.7. Can you tell? F

I wonder whether CN1CCN(CCOc2cc(OC3CCOCC3)c3c(Nc4c(Cl)ccc5c4OCO5)ncnc3c2)CC1 [Saracatinib] + N=C(N)NC(=N)NCCc1ccccc1 [Phenformin] (partner 250 µM) has relative viability below 0.7. Can you tell? T

New cases:
I wonder whether CN1CCN(CCOc2cc(OC3CCOCC3)c3c(Nc4c(Cl)ccc5c4OCO5)ncnc3c2)CC1 [Saracatinib] + O=C(CCCCCCC(=O)Nc1ccccc1)NO [Vorinostat] (partner 1 µM) has relative viability below 0.7. Can you tell? F

I wonder whether Cc1csc(=NC2CCCCC2)n1/N=C/c1ccc(O)c(O)c1O [MIM1] + COc1cccc2cc(-c3nc([C@H]4CC[C@H](C(=O)O)CC4)n4ncnc(N)c34)[nH]c12 [OSI-027] (partner 0.5 µM) has relative viability below 0.7. Can you tell? T

I wonder whether CN1CCN(CCOc2cc(OC3CCOCC3)c3c(Nc4c(Cl)ccc5c4OCO5)ncnc3c2)CC1 [Saracatinib] + CS(=O)(=O)CCNCc1ccc(-c2ccc3ncnc(Nc4ccc(OCc5cccc(F)c5)c(Cl)c4)c3c2)o1 [Lapatinib] (partner 2 µM) has relative viability below 0.7. Can you tell? F

I wonder whether Cc1csc(=NC2CCCCC2)n1/N=C/c1ccc(O)c(O)c1O [MIM1] + Nc1ncn([C@H]2C[C@H](O)[C@@H](CO)O2)c(=O)n1 [Decitabine] (partner 2 µM) has relative viability below 0.7. Can you tell? F

I wonder whether Cc1csc(=NC2CCCCC2)n1/N=C/c1ccc(O)c(O)c1O [MIM1] + CC(=O)c1c(C)c2cnc(Nc3ccc(N4CCNCC4)cn3)nc2n(C2CCCC2)c1=O [Palbociclib] (partner 0.5 µM) has relative viability below 0.7. Can you tell? T

I wonder whether CN1CCN(CCOc2cc(OC3CCOCC3)c3c(Nc4c(Cl)ccc5c4OCO5)ncnc3c2)CC1 [Saracatinib] + C[C@]1(O)C[C@@H](c2nc(-c3ccc4ccc(-c5ccccc5)nc4c3)c3c(N)nccn32)C1 [Linsitinib] (partner 1 µM) has relative viability below 0.7. Can you tell? T

I wonder whether Cc1csc(=NC2CCCCC2)n1/N=C/c1ccc(O)c(O)c1O [MIM1] + CC(=O)Nc1cccc(-n2c(=O)n(C3CC3)c(=O)c3c(Nc4ccc(I)cc4F)n(C)c(=O)c(C)c32)c1 [Trametinib] (partner 0.02 µM) has relative viability below 0.7. Can you tell? F

====

System: NCI-H838
MEASUREMENT_NOTES: relative viability (nuclei count vs DMSO), 5 days (fraction); higher = more cells survive
RUN_CONDITIONS: first compound 0.006325 µM
READOUT_LABEL: relative viability
Write no unit; give the number alone.

The reported relative viability of the molecule CCNC(=O)c1noc(-c2cc(C(C)C)c(O)cc2O)c1-c1ccc(CN2CCOCC2)cc1 [Luminespib] + C[C@]1(O)C[C@@H](c2nc(-c3ccc4ccc(-c5ccccc5)nc4c3)c3c(N)nccn32)C1 [Linsitinib] (partner 1 µM) was 0.942

The reported relative viability of the molecule CCNC(=O)c1noc(-c2cc(C(C)C)c(O)cc2O)c1-c1ccc(CN2CCOCC2)cc1 [Luminespib] + Cc1cc(Nc2cc(N3CCN(C)CC3)nc(Sc3ccc(NC(=O)C4CC4)cc3)n2)n[nH]1 [Tozasertib] (partner 0.1 µM) was 0.215

The reported relative viability of the molecule CCNC(=O)c1noc(-c2cc(C(C)C)c(O)cc2O)c1-c1ccc(CN2CCOCC2)cc1 [Luminespib] + O=C(c1cc(Cc2n[nH]c(=O)c3ccccc23)ccc1F)N1CCN(C(=O)C2CC2)CC1 [Olaparib] (partner 8 µM) was 0.782

We next turn to a different molecule, shown below.
The reported relative viability of the molecule CCNC(=O)c1noc(-c2cc(C(C)C)c(O)cc2O)c1-c1ccc(CN2CCOCC2)cc1 [Luminespib] + CC(=O)Nc1cccc(-n2c(=O)n(C3CC3)c(=O)c3c(Nc4ccc(I)cc4F)n(C)c(=O)c(C)c32)c1 [Trametinib] (partner 0.02 µM) was 0.474
